assay: yeast display, Sf9 membrane polyspecificity reagent, FACS + sequencing; frameworks hold sequencing errors
readoutName: polyreactivity (PSR sort gate)

residueSequence	readoutName	reported
QVQLVESGGGLVQAGGSLRLSCAASGRILLRNVMGWYRQAPGKERELVAVITRTGITYYADSVMGRFTITRDNAKNTVYLQMTSLKPEDTAVYYCAAGLPKYEHDYWGQGTQVTVSS	polyreactivity (PSR sort gate)	low polyreactivity
QVQLVESGGGLVQAGGSLRLSCAASGSIFVYKAMGWYRQAPGKERELVAGITFIGGSTYYADSVKGRFTISRDNAKNTVYLQMNCLKPEDTAVYYCNADVAPGIFYGYDSWGQGTQVTVSS	polyreactivity (PSR sort gate)	low polyreactivity
QVHLVESGGGLVLAGGSLRLSFAASGSTFDSYAMRCYRQQPGKQREFVAVINSGGSTNYADSVNGRFTISRDYSKNTVYLQMNSLKPEDTAVYYCAAEERYRWHYGGWGYWYDYWGQGTQVTVSS	polyreactivity (PSR sort gate)	low polyreactivity
QVQLVESGGGLVQAGGSLRLSCAASGSIFTPNAMGWYRQAPGKERELVAAISSSSDRTYYADSVKGRFTLSRDNAKNTVYLQMNSLKPEDTAVYYCAAYAQKRYYWGQGTQVTVSS	polyreactivity (PSR sort gate)	high polyreactivity
QVQLVESGGGLVQAGGSLRLTCAASGRIFTRYAMGWYRQAPGKERELVAAINYRGSSTYYADSVKGRFTISRDNAKNTVYLQMNSLKPEDTAVYYCNTYGQTDTYWRYYYWGQGTQVTVSS	polyreactivity (PSR sort gate)	high polyreactivity

###

assay: yeast display, Sf9 membrane polyspecificity reagent, FACS + sequencing; frameworks hold sequencing errors

residueSequence	polyreactivity (PSR sort gate)
QVKLVESGGGLVQAGGSLRLTCAAYGFTFAGYTLGCYRQAPGKERELVAAITSSGGSTYYADYVKGRFTISRDNAKNTVYLQMNSLKPEDTAVYYCAARSHSTYYYWGQGTQVTVSS	high polyreactivity
QVQLEETGGGLLQAGGSLRLSSAASGRTFVNYAMGWYRQAPGKEREFVAAIDRRSGSTYYADSVKGRFTISRDNAKNTVYLQMTSLKPEDTAVDYCAASPYIYDSWGQGTQVTVSS	low polyreactivity
QVQLVESGGGLVQAGGSLRLSCAASGSTFGYYAMGWYRQAPRKERELVAVITRGGSTYYADSVKGRFTISRDNAKNTVYVQMNSLKPEDTAVYYCNARVQAVHYGYWGQGTEVTVSS	high polyreactivity
QVQLVESGGGLVQAGGSLRLSCAASGRIFHFYAMGWYRQAPGKERELVASITWRGGRTYYADSVKGRFTISRDNAKNTVYLQMNSLKPEDTAVYYCAADFRSGFSSSTTPVQSDWGQGTQVTVSS	low polyreactivity
QVQLVESGGGLVQAGGSLRLSCAASGRTFRIYAMGWYRQAPGKERELVAAISARGGSTYYADSVKGRFTISRDNAKNTVYLQMNSLKPEDTAVYYCAAEKTRRVDYWGQGTQVTVSS	high polyreactivity

###

assay: yeast display, Sf9 membrane polyspecificity reagent, FACS + sequencing; frameworks hold sequencing errors

residueSequence	polyreactivity (PSR sort gate)
QVQLVESGGGLVQAGGSLRLSCAASGRIFKLYAMGWYRQAPGKERELVAAISKSGGNTYADSVKGRFTISRDNAKNPVYLQMNSLKPEDTAVYYCAATVQSTSDPFDYLGQGTQVTVSS	low polyreactivity
QVQLVESGGGLVQAGGSLRLSCAASGRTFFKYAMGWYRQAPGKERELVAAITWGGDRTFYADSVKGRFTISRDNAKNTVYLQMNSMKADETAVYYCAAEVLPNVYVYQSARGFYYWGQGTQVTVSS	high polyreactivity
QVQLVESVGGLVQAGGRLRLSCAASGLTFTHYTMGWYIQAPGKERELVAAISQTGGSTYYADSVKGRFTISRDNEKNTVYLQMNSQKPEDTADYYCSRVFPRPRPGYYNWGQGTQVTVSS	high polyreactivity
QVQLVDSGGGLVQAGGSLRLSCASSGFTISPYAMGWYRQAPGKERELVAAISSSGGSTYYADSVKGRFTISRDNAKYTVYLQMTSLKPEDTAVYYCATQGTRRPGKFYYWGQCTQVTVSS	high polyreactivity
QVQLVESGGGLVQAGGSLRLSCASSRNIFYLYAMGWYRQAPGKEREFSTSYADSEKGRFTISRDNAKNTVYLQMNSLKPEDTAVYYCAAYNSRGPYYYLFDYWGQGSQVTVSS	low polyreactivity

Entry source: the nanobody polyreactivity screen of Harvey et al. (2022)
